- Test system: T. b. brucei Lab 110 EATRO
- Assay Details: In vivo efficacy in infected mice
- Set-up: species or system Trypanosoma brucei brucei
- Experimental Context: mice, 1 mg/kg/day i.p. for 3 days
Property: MSD (days)
API: value field is a number in days; no unit string.

Examples from the recorded data:
Smiles Code: N=C(N)c1ccc(NC(=O)CCCCCCC(=O)Nc2ccc(C(=N)N)cc2)cc1
Property: MSD
Measurement Unit: days
Measured: 10
//
Smiles Code: N=C(N)c1ccc(NC(=O)CCCCC(=O)Nc2ccc(C(=N)N)cc2)cc1
Property: MSD
Measurement Unit: days
Measured: 6.7
//
Smiles Code: N=C(N)c1ccc(OCc2cccc(COc3ccc(C(=N)N)cc3)c2)cc1
Property: MSD
Measurement Unit: days
Measured: 8
//
Smiles Code: Cl.Cl.N=C(NC1CCCCCC1)c1ccc(N2CCN(c3ccc(C(=N)NC4CCCCCC4)cc3)CC2)cc1
Property: MSD
Measurement Unit: days
Measured: 7.5
//
Smiles Code: CCNC(=N)c1ccc(N2CCN(c3ccc(C(=N)NCC)cc3)CC2)cc1.Cl.Cl
Property: MSD
Measurement Unit: days
Measured: 5
//
Smiles Code: N=C(N)c1ccc(NC(=O)CCCCCCCCC(=O)Nc2ccc(C(=N)N)cc2)cc1
Property: MSD
Measurement Unit: days
Measured: 12

Okay, next one:
Ask | Name the reported MSD value associated with the molecule Cl.Cl.N=C(NC1CCC1)c1ccc(N2CCN(c3ccc(C(=N)NC4CCC4)cc3)CC2)cc1
Reply | 5
